Reported pEC50 values are given for each entry in this list.
Tested on: HCV genotype 1a (H77 strain) replicon in HUH-7 cells
Test: HCV replicon luciferase reporter assay, genotype 1a
Assay type: cell-based
Details: Hepatitis C virus, Huh-7, 72 h, HCV genotype 1a replicon luciferase, 3 days incubation, class symbols, read-out: LE_1a (EC50, range)
pEC50: −log10 of the molar value.
assay.metric: pEC50

[2H]C([2H])([2H])Oc1cnc(O[C@@H]2C[C@H]3C(=O)N[C@]4(C(=O)NS(=O)(=O)C5(C)CC5)C[C@H]4CCCC[C@H](C)C[C@@H](C)[C@H](NC(=O)OC(C)(C)C(F)(F)F)C(=O)N3C2)c2ccccc12
6.99 to 8.32
COc1ccc2c(O[C@@H]3C[C@H]4C(=O)N[C@]5(C(=O)NS(=O)(=O)C6(CF)CC6)C[C@H]5/C=C\CC[C@@H](C)C[C@@H](C)[C@H](NC(=O)OC(C)(C)C(F)(F)F)C(=O)N4C3)ccnc2c1
6.99 to 8.32
CCOc1ccc2c(O[C@@H]3C[C@H]4C(=O)N[C@]5(C(=O)NS(=O)(=O)C6(C)CC6)C[C@H]5/C=C\CC[C@H](C)C[C@@H](C)[C@H](NC(=O)OC(C)(C)C(F)(F)F)C(=O)N4C3)nccc2c1
6.99 to 8.32
CC[C@@H]1C[C@H](C)CC/C=C\[C@@H]2C[C@@]2(C(=O)NS(=O)(=O)C2(C)CC2)NC(=O)[C@@H]2C[C@@H](Oc3nccc4cc(OC)ccc34)CN2C(=O)[C@H]1NC(=O)OC(C)(C)C
> 8.26

====

Test system: HCV genotype 1a (H77 strain) replicon in HUH-7 cells
Experiment: HCV replicon luciferase reporter assay, genotype 1a
Format: cell-based
Conditions: Hepatitis C virus, Huh-7, 72 h, HCV genotype 1a replicon luciferase, 3 days incubation, class symbols, read-out: LE_1a (EC50, range)
pEC50: −log10 of the molar value.
Reported pEC50 values are given for each entry in this list.
assay.metric: pEC50

CCOc1ccc2c(O[C@@H]3C[C@H]4C(=O)N[C@]5(C(=O)NS(=O)(=O)C6(C)CC6)C[C@H]5/C=C\CC[C@@H](C)C[C@@H](C)[C@H](NC(=O)OC(C)(C)C(F)(F)F)C(=O)N4C3)nccc2c1
> 8.26
CCOc1ccc2c(O[C@@H]3C[C@H]4C(=O)N[C@]5(C(=O)NS(=O)(=O)C6CC6)C[C@H]5/C=C\CC[C@@H](C)C[C@@H](C)[C@H](NC(=O)OC(C)(C)C(F)(F)F)C(=O)N4C3)nccc2c1
> 8.26
CCOc1ccc2c(O[C@@H]3C[C@H]4C(=O)N[C@]5(C(=O)NS(=O)(=O)C6CC6)C[C@H]5/C=C\CC[C@H](C)C[C@@H](C)[C@H](NC(=O)OC(C)(C)C(F)(F)F)C(=O)N4C3)nccc2c1
6.99 to 8.32
CC[C@@H]1C[C@H](C)CC/C=C\[C@@H]2C[C@@]2(C(=O)NS(=O)(=O)C2CC2)NC(=O)[C@@H]2C[C@@H](Oc3ncc(OC)c4ccc(F)cc34)CN2C(=O)[C@H]1NC(=O)OC(C)(C)C
> 8.26

====

System: HCV genotype 1b (Con1) replicon in HUH-7 cells
Experiment: HCV replicon luciferase reporter assay, genotype 1b
Type: cell-based
Settings: Hepatitis C virus, 72 h, HCV genotype 1b replicon luciferase, 3 days incubation, class symbols, read-out: LE_1b (EC50, range)
pEC50: −log10 of the molar value.
assay.metric: pEC50

C[C@@H]1CC/C=C\[C@@H]2C[C@@]2(C(=O)NS(=O)(=O)C2CC2)NC(=O)[C@@H]2C[C@@H](Oc3ncc(OC(F)F)c4c(Cl)cccc34)CN2C(=O)[C@@H](NC(=O)OC(C)(C)C(F)(F)F)[C@H](C)C1
> 8.26
CCOc1ccc2c(O[C@@H]3C[C@H]4C(=O)N[C@]5(C(=O)NS(=O)(=O)C6(C)CC6)C[C@H]5/C=C\CC[C@H](C)C[C@@H](C)[C@H](NC(=O)OC(C)(C)C(F)(F)F)C(=O)N4C3)nccc2c1
> 8.26
CCOc1cnc(O[C@@H]2C[C@H]3C(=O)N[C@]4(C(=O)NS(=O)(=O)C5(C)CC5)C[C@H]4/C=C\CC[C@@H](C)C[C@@H](C)[C@H](NC(=O)OC(C)(C)C(C)(F)F)C(=O)N3C2)c2ccccc12
> 8.26
CCOc1ccc2c(O[C@@H]3C[C@H]4C(=O)N[C@]5(C(=O)NS(=O)(=O)C6(C)CC6)C[C@H]5/C=C\CC[C@@H](C)C[C@@H](C)[C@H](NC(=O)O[C@@H]5C[C@@H]6C[C@@H]6C5)C(=O)N4C3)nccc2c1
> 8.26
